Test system: 519858-162-T-J1-PDC complex spheroid viability;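 note: spheroids exposed to compounds for 7 days; 100% = DMSO vehicle control viability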
Experiment: Anticancer human tumor 519858-162-T-J1-PDC patient-derived colon adenocarcinoma cell line growth inhibition [GQUAD]
Details: second compound 3.16 µM; first compound 3.16 µM; active compounds read low
# maps each entry to its viability, T/C
Numeric only. Scale: %

Below, 2 compounds whose answers are already recorded.
COc1cc(C2c3cc4c(cc3C(OC3OC5COC(C)OC5C(O)C3O)C3COC(=O)C23)OCO4)cc(OC)c1O (stereo not drawn) + Cc1[nH]c2ccc(F)cc2c1-c1nc2c3cccnc3c3ncccc3c2[nH]1    58.6
CC1COCCN1c1cc(C2(S(C)(=N)=O)CC2)nc(-c2ccnc3[nH]ccc23)n1 (stereo not drawn) + Cc1[nH]c2ccc(F)cc2c1-c1nc2c3cccnc3c3ncccc3c2[nH]1    73.2

--- query ---
State the recorded viability, T/C for this entry: COc1ccc([C@@H](O)c2cc(-c3ncnc4cc(N5CCOCC5)ccc34)c(F)cc2Cl)nn1 + CN(C)c1ccc(Nc2c3ccc(NC(=O)CCN4CCCC4)cc3nc3cc(NC(=O)CCN4CCCC4)ccc23)cc1
94.1
